Molecular target: Ribosomal protein S6 kinase alpha-5 (Homo sapiens, UniProt O75582)
Sequence (O75582 whole entry): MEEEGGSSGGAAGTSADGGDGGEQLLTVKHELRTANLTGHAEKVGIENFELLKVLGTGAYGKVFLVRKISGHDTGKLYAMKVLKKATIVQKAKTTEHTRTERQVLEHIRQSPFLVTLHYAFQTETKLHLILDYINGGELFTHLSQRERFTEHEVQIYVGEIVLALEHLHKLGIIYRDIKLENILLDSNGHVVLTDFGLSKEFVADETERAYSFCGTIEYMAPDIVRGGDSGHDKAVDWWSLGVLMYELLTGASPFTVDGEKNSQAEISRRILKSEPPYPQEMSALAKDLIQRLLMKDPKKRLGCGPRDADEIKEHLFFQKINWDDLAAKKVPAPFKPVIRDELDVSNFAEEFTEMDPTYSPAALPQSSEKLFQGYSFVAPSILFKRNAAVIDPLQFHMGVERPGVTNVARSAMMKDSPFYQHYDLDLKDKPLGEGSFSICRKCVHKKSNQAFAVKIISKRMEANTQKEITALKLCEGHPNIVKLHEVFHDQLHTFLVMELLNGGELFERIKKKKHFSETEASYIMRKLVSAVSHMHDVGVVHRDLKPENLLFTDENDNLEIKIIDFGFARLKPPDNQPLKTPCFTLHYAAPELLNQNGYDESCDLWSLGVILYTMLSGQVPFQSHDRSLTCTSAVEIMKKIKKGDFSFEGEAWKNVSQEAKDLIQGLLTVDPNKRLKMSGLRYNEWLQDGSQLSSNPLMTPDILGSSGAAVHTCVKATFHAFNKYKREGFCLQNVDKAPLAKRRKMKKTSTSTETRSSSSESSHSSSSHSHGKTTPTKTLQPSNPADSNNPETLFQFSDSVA
Property name: IC50

Q: State the recorded IC50 for this entry: O=C1NC(=O)C(c2cn(CCCO)c3ncccc23)=C1c1ncc(C(F)(F)F)cc1Cl
A: > 10 µM

---

Biological target: 3-phosphoinositide-dependent protein kinase 1 (Homo sapiens, UniProt O15530)
Sequence (O15530 whole entry): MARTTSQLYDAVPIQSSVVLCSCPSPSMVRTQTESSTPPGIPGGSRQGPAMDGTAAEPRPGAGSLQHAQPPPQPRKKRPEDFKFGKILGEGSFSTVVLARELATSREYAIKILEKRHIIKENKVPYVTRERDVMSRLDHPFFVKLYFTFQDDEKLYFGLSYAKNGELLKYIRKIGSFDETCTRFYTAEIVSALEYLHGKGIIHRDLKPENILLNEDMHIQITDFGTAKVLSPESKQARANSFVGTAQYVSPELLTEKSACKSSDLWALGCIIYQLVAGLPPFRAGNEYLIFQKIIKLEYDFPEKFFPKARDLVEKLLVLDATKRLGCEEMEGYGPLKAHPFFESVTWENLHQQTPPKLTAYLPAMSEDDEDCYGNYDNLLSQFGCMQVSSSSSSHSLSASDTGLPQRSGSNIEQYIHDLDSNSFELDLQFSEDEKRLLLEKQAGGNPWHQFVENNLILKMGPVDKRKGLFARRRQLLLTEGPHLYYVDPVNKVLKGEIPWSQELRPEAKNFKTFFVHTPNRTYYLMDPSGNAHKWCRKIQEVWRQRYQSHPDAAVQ
Property name: IC50 (nM)
Express it in nM; write the number only.

Q: What does the data say about its IC50? Entry: COc1ccccc1C1=C(c2cn(CCCNC(=O)OC(C)(C)C)c3ncccc23)C(=O)NC1=O
A: 570
